Target protein (sequence): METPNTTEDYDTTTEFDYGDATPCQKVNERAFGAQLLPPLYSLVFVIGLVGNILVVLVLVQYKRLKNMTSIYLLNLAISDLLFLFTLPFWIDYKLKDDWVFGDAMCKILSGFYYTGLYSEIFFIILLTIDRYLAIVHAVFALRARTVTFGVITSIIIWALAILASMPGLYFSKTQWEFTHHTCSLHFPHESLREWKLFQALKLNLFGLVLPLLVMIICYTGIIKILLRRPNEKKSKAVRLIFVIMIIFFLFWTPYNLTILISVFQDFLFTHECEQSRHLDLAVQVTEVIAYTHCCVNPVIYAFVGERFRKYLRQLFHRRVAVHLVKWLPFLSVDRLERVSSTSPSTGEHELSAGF
pIC50: −log10 of the molar value.
Threshold check on pIC50: at or above 6 gives Satisfied, strictly below gives Not satisfied.

smiles-structure	assigned-category
CNC(=O)[C@H](CC(C)C)C[C@H](O)[C@H](Cc1ccccc1)NC(=O)c1ccnc2ccccc12	Not satisfied
CC(C)CC[C@H](C[C@H](O)[C@H](Cc1ccccc1)NC(=O)c1cnc2ccccc2n1)C(N)=O	Satisfied

Is pIC50 at least 6? Consider `CNC(=O)[C@H](CC(C)C)C[C@H](O)[C@H](Cc1ccc(F)cc1)NC(=O)c1cnc2ccccc2n1` Not satisfied

Could you please find out whether `CNC(=O)[C@H](CC(C)C)C[C@H](O)[C@H](Cc1ccccc1)NC(=O)c1cnnc2ccccc12` has pIC50 that meets 6 or exceeds it? Not satisfied
